Data provenance is patent US20180036441A1.

Measured geometric mean accompanies every entry in the list below.
molecular target: T1, MUC1 on HCT116/MUC1 cells (UniProt P15941 24-1255, limits assumed); test: FACS titration, HCT116/MUC1 cells, antibody at 15.625 nM
T1 construct: whole, on cells; also called MUC1 overexpressed cell line
T1 sequence (P15941 24-1255 limits assumed): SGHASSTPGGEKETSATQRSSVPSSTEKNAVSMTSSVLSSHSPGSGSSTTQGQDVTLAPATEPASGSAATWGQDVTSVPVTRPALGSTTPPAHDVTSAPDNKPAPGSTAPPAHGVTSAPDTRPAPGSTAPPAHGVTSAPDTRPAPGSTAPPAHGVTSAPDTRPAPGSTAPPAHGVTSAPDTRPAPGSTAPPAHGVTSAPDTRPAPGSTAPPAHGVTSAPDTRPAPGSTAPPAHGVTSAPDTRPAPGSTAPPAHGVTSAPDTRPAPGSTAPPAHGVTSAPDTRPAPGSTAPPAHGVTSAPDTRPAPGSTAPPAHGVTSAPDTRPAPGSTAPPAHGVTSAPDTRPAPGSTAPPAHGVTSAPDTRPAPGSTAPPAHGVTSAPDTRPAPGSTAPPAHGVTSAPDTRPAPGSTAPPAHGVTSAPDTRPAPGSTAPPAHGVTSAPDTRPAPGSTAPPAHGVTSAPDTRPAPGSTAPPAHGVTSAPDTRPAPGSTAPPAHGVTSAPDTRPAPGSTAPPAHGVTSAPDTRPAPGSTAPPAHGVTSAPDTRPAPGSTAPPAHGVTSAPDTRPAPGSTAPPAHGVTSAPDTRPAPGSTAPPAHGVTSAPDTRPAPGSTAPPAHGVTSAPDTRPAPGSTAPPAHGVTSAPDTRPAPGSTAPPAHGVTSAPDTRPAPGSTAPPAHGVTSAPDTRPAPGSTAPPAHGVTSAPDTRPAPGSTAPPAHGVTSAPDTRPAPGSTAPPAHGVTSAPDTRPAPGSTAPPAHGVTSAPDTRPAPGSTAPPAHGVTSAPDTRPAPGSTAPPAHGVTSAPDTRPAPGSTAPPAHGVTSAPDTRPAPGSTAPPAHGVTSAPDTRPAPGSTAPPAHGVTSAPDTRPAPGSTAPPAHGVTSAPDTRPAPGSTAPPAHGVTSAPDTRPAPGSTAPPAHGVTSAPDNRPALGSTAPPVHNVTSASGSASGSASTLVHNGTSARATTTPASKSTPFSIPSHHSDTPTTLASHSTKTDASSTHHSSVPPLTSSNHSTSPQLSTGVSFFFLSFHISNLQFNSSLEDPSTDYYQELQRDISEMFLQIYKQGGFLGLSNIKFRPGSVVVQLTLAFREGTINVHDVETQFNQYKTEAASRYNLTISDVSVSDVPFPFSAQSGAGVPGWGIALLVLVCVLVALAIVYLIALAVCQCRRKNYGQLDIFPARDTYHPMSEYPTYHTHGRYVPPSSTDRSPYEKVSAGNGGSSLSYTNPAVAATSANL
I'd appreciate a reply containing only the number, no unit.

// below: answered binders
VH2 + VL4 (antibody, V domains shown, Humanized IgG expressed in HEK293; also called humanized antibody VH2+VL4) VH: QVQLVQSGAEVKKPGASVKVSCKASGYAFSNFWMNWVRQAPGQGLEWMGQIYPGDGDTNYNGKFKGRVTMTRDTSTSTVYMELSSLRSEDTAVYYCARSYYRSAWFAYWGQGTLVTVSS VL: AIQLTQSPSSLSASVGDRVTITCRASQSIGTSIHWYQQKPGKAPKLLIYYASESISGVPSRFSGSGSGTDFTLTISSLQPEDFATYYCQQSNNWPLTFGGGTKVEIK
28.4
VH3 + VL1 (antibody, V domains shown, Humanized IgG expressed in HEK293; also called humanized antibody VH3+VL1) VH: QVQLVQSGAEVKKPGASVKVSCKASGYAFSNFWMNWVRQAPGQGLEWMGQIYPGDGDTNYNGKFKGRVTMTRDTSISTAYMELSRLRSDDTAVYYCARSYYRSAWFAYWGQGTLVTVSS VL: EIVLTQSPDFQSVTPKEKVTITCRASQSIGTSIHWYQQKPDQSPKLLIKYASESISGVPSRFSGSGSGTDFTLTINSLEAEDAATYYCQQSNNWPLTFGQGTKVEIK
71.3

Consider the additional binder presented here.
Output geometric mean of VH3 + VL4 (antibody, V domains shown, Humanized IgG expressed in HEK293; also called humanized antibody VH3+VL4) VH: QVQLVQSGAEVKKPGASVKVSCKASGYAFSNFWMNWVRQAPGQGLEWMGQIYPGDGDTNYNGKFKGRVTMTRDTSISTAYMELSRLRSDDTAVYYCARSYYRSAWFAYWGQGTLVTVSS VL: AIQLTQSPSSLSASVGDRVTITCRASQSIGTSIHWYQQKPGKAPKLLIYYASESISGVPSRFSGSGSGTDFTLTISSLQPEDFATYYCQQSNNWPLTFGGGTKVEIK
54.6
